Tested on: UACC-62 melanoma
Assay: NCI tumour cell line growth inhibition, 48 h
# TGI annotations
Reply with just the number (in µM).

molecule: Nc1nc(N)c(N=O)c(Nc2ccc(Br)cc2)n1
TGI (µM): 19.4

Turning now to a further record.
# lookup: TGI of COC(C)(C)[C@@H](O)[C@H]1C[C@H](C)[C@@]2(CC[C@]3(C)[C@@H]2CC[C@@H]2[C@@]4(C)CC[C@@H](OC(C)=O)C(C)(C)[C@@H]4C[C@@H](OC4OC(COC(C)=O)C(O)C(O)C4O)[C@]23C)O1 (stereo not given in full)
18.6

---

Below is a list of entries, each paired with its recorded TGI value.
Test system: M19-MEL melanoma
Assay: NCI tumour cell line growth inhibition, 48 h

molecule: O=C(CN(c1ccccc1)c1ccccc1)N1c2ccccc2C2C=CC=CC21 (stereo unspecified)
assayValue: > 57.4 µM

Consider the molecule shown here: O=C1NCCS(=O)(=O)N[C@@H](CC2=CC=CCC2)C(=O)N2CCCC12 (stereo partly specified) What is its recorded TGI?
> 100 µM

Cool, now O=c1[nH]cnc(NC2C=C(CO)C(O)C2O)c1[N+](=O)[O-] (stereo unspecified)
> 100 µM

Entry CCNC(=O)/C(=C/c1ccc(OC)cc1)c1cc(OC)c(OC)c(OC)c1 please
> 100 µM

Another: CCC1=CC2CN3Cn4c(c(COCc5c6n(c7ccccc57)CN5CC7C=C(CC)C5C6(C(=O)OC)C7)c5ccccc54)C(C(=O)OC)(C2)C13
> 100 µM

Would you mind doing CN(C(=O)c1ccc([N+](=O)[O-])cc1)c1ccccc1 as well?
> 100 µM
